Test: in vivo
Settings: mouse, ip
REPORTED METRIC: LD50

Previously resolved entries follow.
CC(C)(C)c1ccc(C(O)CCCN2CCC(C(O)(c3ccccc3)c3ccccc3)CC2)cc1 (stereo not drawn) [Terfenadine, reference compound]	100 mg/kg
O=C1CCC(=O)N1CCN1CCN(CCOC(c2ccccc2)c2ccccc2)CC1 [Derivative 22]	146 mg/kg
O=C(NCCN1CCN(CCOC(c2ccccc2)c2ccccc2)CC1)c1ccccc1[N+](=O)[O-] [Derivative 49]	131 mg/kg
O=C1c2ccccc2C(=O)N1CCCCN1CCN(CCOC(c2ccccc2)c2ccccc2)CC1 [Derivative 19]	133 mg/kg

Please report LD50 for every entry that follows.
1. O=c1n(CCN2CCN(CCOC(c3ccccc3)c3ccccc3)CC2)c2ccccc2n1Cc1ccccc1 [Derivative 32]
2. CS(=O)(=O)O.CS(=O)(=O)O.O=C1c2ccccc2C(=O)N1CCN1CCN(CCOC(c2ccccc2)c2ccccc2)CC1 [Derivative 2]

400 mg/kg
211 mg/kg
